- systemUnderTest: UniProtKB I6WXK4
- Sequence (I6WXK4 whole entry, looked up): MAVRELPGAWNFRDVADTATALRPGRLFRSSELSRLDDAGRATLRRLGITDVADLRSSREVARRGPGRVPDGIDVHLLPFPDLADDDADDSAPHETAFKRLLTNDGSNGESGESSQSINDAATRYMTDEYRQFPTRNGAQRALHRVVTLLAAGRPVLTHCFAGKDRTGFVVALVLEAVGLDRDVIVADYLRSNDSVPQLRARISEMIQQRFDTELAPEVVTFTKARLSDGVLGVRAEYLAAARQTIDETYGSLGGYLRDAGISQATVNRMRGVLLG
- assayComment: biochemical
- Format: biochemical
quantityMeasured: Ki

Problem: What Ki value was documented for this compound, O=C(Nc1cc(C(F)(F)F)c(Br)c(C(F)(F)F)c1)c1ccc(C(F)(F)P(=O)(O)O)cc1 ?
Solution: > 100 µM
